Measured ED50, listed per entry.
test system: Mus musculus; assay: Anticonvulsant activity in ip dosed MES induced mouse seizure model measured after 0.5 and 4 hrs; format: functional
Express your answer in mg/kg, writing the number without its unit.

# count of solved cases: 2
FC(F)(F)c1ccccc1C1Cc2nnnn2-c2ccsc21 (stereo not drawn)
19
FC(F)(F)c1ccc(C2Cc3nnnn3-c3ccsc32)cc1 (stereo not drawn)
23.4

Please find the next compound below.
Q: Report ED50 for COc1ccc(C2Cc3nnnn3-c3ccsc32)cc1 (stereo not drawn) please.
Ans: 44
